- assayed_target: T1, VEGF (human, UniProt P15692)
- T1 chain: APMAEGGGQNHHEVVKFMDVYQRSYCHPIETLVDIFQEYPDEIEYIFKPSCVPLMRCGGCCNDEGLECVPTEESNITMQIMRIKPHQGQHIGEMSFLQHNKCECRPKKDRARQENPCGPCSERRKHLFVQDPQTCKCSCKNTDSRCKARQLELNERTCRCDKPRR
- protocol: ELISA
Reported EC50 values are given for each entry in this list.

binder	unit_descriptor	EC50
DVD528 VEGF arm (antibody, V domains shown) VH: EVQLVESGGGLVQPGGSLRLSCAASGFTINASWIHWVRQAPGKGLEWVGAIYPYSGYTNYADSVKGRFTISADTSKNTAYLQMNSLRAEDTAVYYCARWGHSTSPWAMDYWGQGTLVTVSS VL: DIQMTQSPSSLSASVGDRVTITCRASQVIRRSLAWYQQKPGKAPKLLIYAASNLASGVPSRFSGSGSGTDFTLTISSLQPEDFATYYCQQSNTSPLTFGQGTKVEIKR	nM	27.7
DVD479 VEGF arm (antibody, V domains shown) VH: EVQLVESGGGLVQPGGSLRLSCAASGFTINASWIHWVRQAPGKGLEWVGAIYPYSGYTNYADSVKGRFTISADTSKNTAYLQMNSLRAEDTAVYYCARWGHSTSPWAMDYWGQGTLVTVSS VL: DIQMTQSPSSLSASVGDRVTITCRASQVIRRSLAWYQQKPGKAPKLLIYAASNLASGVPSRFSGSGSGTDFTLTISSLQPEDFATYYCQQSNTSPLTFGQGTKVEIKR	nM	456
DVD521 VEGF arm (antibody, V domains shown) VH: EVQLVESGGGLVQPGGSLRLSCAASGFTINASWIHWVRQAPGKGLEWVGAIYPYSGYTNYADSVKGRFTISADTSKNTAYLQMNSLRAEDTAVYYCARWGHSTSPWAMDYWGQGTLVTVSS VL: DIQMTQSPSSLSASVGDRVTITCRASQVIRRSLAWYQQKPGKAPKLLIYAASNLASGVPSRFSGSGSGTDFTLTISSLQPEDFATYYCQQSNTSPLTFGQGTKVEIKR	nM	655
DVD463 VEGF arm (antibody, V domains shown) VH: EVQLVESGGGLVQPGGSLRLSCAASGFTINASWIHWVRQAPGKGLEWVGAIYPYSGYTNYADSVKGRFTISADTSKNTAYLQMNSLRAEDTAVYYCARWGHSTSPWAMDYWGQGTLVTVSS VL: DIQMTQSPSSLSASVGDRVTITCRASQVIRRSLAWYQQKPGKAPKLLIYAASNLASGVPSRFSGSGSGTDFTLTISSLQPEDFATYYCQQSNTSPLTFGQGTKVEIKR	nM	1730
DVD522 VEGF arm (antibody, V domains shown) VH: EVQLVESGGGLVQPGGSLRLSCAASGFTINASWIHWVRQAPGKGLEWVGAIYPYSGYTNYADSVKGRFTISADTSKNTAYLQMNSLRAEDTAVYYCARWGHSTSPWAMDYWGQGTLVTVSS VL: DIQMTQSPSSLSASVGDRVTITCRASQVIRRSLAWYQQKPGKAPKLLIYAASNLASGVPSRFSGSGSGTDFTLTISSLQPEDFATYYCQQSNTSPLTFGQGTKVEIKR	nM	23.5
DVD509 VEGF arm (antibody, V domains shown) VH: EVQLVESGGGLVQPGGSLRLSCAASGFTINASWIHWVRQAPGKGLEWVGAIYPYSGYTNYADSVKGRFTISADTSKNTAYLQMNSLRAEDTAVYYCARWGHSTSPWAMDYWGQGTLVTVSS VL: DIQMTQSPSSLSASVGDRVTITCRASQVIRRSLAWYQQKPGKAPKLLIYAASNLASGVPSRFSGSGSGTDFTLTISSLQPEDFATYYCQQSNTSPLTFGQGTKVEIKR	nM	121
DVD464 VEGF arm (antibody, V domains shown) VH: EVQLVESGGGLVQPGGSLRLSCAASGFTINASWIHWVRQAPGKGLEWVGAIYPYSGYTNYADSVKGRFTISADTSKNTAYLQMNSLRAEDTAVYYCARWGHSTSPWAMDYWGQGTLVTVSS VL: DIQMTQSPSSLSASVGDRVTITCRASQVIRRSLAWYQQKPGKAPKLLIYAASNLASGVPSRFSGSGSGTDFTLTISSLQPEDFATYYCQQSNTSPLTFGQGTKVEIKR	nM	19.3
DVD492 VEGF arm (antibody, V domains shown) VH: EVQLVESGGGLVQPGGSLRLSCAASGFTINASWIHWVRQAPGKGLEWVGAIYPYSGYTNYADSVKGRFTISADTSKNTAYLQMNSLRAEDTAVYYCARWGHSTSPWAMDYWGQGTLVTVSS VL: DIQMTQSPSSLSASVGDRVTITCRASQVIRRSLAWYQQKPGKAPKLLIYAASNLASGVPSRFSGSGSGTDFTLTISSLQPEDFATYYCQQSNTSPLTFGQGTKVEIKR	nM	8.42
DVD468 VEGF arm (antibody, V domains shown) VH: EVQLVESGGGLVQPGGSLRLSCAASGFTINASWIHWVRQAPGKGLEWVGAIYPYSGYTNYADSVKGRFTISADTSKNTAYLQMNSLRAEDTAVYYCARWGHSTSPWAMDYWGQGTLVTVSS VL: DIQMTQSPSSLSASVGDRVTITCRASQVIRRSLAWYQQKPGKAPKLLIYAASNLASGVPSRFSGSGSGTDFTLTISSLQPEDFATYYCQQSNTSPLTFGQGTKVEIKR	nM	25.6
DVD457 VEGF arm (antibody, V domains shown) VH: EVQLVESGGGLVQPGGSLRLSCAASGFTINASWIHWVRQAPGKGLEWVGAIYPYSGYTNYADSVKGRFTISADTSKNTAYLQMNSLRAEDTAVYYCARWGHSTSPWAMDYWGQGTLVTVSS VL: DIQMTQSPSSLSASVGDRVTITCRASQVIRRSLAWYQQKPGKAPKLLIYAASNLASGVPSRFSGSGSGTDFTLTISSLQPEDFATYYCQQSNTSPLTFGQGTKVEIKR	nM	1480
